melting point listing for selected compounds.

- compound: "CCC1OC(=O)Nc2ccc(-c3cccc(Cl)c3)cc21 (stereo not shown) [Example 10]"
  melting point: "146 to 148 °C"
- compound: "CC1(C)OC(=O)Nc2ccc(-c3cccc(CC#N)n3)cc21 [Example 132]"
  melting point: "210 to 212.5 °C"
- compound: "CCN1C(=O)OC(C)(C)c2cc(-c3cc(F)cc(C#N)c3)ccc21 [Example 131]"
  melting point: "154 to 155 °C"
- compound: "CCCCc1cc(C#N)sc1-c1ccc2c(c1)C(C)(C)OC(=O)N2 [Example 113]"
  melting point: "167 to 168 °C"
- compound: "CC1(C)OC(=O)Nc2ccc(-c3cc(C#N)cs3)cc21 [Example 90]"
  melting point: "255 to 260 °C"
- compound: "CC1(C)OC(=O)Nc2ccc(-c3cc(Cl)cc(C#N)c3)cc21 [Example 78]"
  melting point: "256 to 257 °C"
- compound: "CC1(C)OC(=O)Nc2ccc(-c3cc(C#N)ccc3F)cc21 [Compound 5]"
  melting point: "229 to 230 °C"
- compound: "CCc1cc(C#N)sc1-c1ccc2c(c1)C(C)(C)OC(=O)N2 [Example 111]"
  melting point: "160 to 162 °C"
- compound: "CC1(c2ccccc2)OC(=O)Nc2ccc(-c3cccc(Cl)c3)cc21 (stereo not shown) [Example 39]"
  melting point: "179 to 180 °C"
- compound: "CC1(C)OC(=O)Nc2ccc(-c3cccc(F)c3F)cc21 [Example 130]"
  melting point: "166 to 167 °C"
